Reference source: patent US5843941A

# Tgt: CAAX GG transferase (Rattus norvegicus, UniProt P53610+Q04631)
# Construct: partially purified CAAX GG transferase
# Sequence (P53610 whole entry, one chain of several): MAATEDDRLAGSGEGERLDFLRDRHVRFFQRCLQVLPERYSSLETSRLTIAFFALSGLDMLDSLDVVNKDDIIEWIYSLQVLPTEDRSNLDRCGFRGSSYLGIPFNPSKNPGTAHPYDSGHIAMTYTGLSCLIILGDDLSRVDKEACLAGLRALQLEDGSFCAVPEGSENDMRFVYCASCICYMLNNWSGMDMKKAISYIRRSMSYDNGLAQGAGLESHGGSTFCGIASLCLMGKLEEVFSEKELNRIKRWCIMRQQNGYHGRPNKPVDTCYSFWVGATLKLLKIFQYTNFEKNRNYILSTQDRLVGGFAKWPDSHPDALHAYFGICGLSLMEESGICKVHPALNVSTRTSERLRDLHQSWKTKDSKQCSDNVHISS
# Protocol text: Inhibition of CAAX GG transferase (geranylgeranyltransferase)
# Condition parameters: FIG. 1B; p21H-rasCVLL substrate; read-out: IC0.5 CAAX GG transferase
Measurement type: pIC50
Please keep in mind that pIC50 is minus log10 of the molar concentration; only the number is needed.

Ask: Report pIC50 for CSCC[C@H](NC(=O)CN1C(=O)C(N(C)C(=O)[C@@H](N)CS)N=C(c2ccccc2)c2ccccc21)C(=O)O (single isomer, unassigned) [27B] please.
Result: 7.46
